meta.source: the RNAGym collection of RNA variant scans (doi:10.7554/elife.90254)

B1: LINE1-full (parent)
chain: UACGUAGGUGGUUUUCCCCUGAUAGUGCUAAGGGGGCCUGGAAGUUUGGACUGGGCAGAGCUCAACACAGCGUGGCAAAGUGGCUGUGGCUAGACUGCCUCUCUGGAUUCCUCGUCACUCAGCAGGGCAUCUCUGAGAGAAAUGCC

variants of: B1; test: self-cleavage, relative activity (ratio to wild type); higher = more cleavage; in vitro, sequencing; the parent is a self-cleaving ribozyme
Classification field: enter t for self-cleavage values not below 0.9, f for values below it.

Past entries and their recorded results:
A57U U130A; f
U1C C38A; f
C17U A140U; t
U73C C128A; t
C16U A92U; f

QUERY: Check the entry A43U U143C : does self-cleavage equal or exceed 0.9?
RESULT: f

QUERY: Check the entry G48A U62A : does self-cleavage equal or exceed 0.9?
RESULT: f

QUERY: Check the entry U9A A107G : does self-cleavage equal or exceed 0.9?
RESULT: t

QUERY: Check the entry G34U A65G : does self-cleavage equal or exceed 0.9?
RESULT: f

QUERY: Check the entry C3U U81C : does self-cleavage equal or exceed 0.9?
RESULT: f

QUERY: Check the entry A31G G34A : does self-cleavage equal or exceed 0.9?
RESULT: f

QUERY: Check the entry U109A U134A : does self-cleavage equal or exceed 0.9?
RESULT: f

QUERY: Check the entry C56U A59G : does self-cleavage equal or exceed 0.9?
RESULT: f

QUERY: Check the entry G33U G114A : does self-cleavage equal or exceed 0.9?
RESULT: t

QUERY: Check the entry A124G A129U : does self-cleavage equal or exceed 0.9?
RESULT: t

QUERY: Check the entry U52G U112A : does self-cleavage equal or exceed 0.9?
RESULT: f

QUERY: Check the entry U73C A121G : does self-cleavage equal or exceed 0.9?
RESULT: t

QUERY: Check the entry A79G C118U : does self-cleavage equal or exceed 0.9?
RESULT: t

QUERY: Check the entry G40A U115A : does self-cleavage equal or exceed 0.9?
RESULT: t
